- ASSAY_OVERVIEW: Phase 1 DDI study: plasma PK of encorafenib
- Type: in vivo
- EXPERIMENTAL_PARAMETERS: human, oral, Cmax, GM (CV%), encorafenib steady state (day 14), n=10
VALUE_KIND: Cmax (ng/mL)
# value in ng/mL; strip the unit string

Give a short answer stating reported Cmax for COC(=O)N[C@@H](C)CNc1nccc(-c2cn(C(C)C)nc2-c2cc(Cl)cc(NS(C)(=O)=O)c2F)n1 .
2940
